experiment: recombinant UMI read abundance after kanamycin selection (control-corrected) (log10(CPM+1)); higher = more efficient recombination; extreme values may be limits of the assay; sequences stand for … in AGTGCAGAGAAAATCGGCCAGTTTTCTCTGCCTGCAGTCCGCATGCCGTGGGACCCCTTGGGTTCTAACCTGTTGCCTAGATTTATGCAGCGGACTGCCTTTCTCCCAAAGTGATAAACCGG…AGGTTGGTTTCACT; site = the 11-nt donor;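 further: IS621 bridge recombinase in Escherichia coli cells against a fixed T5 target plasmid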
Provide the reported recombinant UMI read abundance (log10) of each item.
Answer with a bare number; do not write a unit.

Provide recombinant UMI read abundance (log10) value for the following sequence: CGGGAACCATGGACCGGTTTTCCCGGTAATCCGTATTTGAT (site CGGCAACCTAT)
0

Provide recombinant UMI read abundance (log10) value for the following sequence: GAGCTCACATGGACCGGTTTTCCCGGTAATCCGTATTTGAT (site GAGCTCACTGT)
0.768

Provide recombinant UMI read abundance (log10) value for the following sequence: AACGTAACATGGACCGGTTTTCCCGGTAATCCGTATTTGCT (site AACGTAACTAG)
2.51

Provide recombinant UMI read abundance (log10) value for the following sequence: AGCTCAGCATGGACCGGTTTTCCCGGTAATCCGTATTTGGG (site AGCTTAGCTCC)
0.0288

Provide recombinant UMI read abundance (log10) value for the following sequence: AATGTGCCATGGACCGGTTTTCCCGGTAATCCGTATTTGAC (site AATGTGCCTGT)
0

Provide recombinant UMI read abundance (log10) value for the following sequence: CACTTGACATGGACCGGTTTTCCCGGTAATCCGTATTTGGA (site CACTTGACTTC)
0.194

Provide recombinant UMI read abundance (log10) value for the following sequence: GTCTGCACATGGACCGGTTTTCCCGGTAATCCGTATTTGTA (site GTTTGCACTTA)
0.0829

Provide recombinant UMI read abundance (log10) value for the following sequence: ACGCACGCATGGACCGGTTTTCCCGGTAATCCGTATTTGGG (site AGGCACGCTCC)
0.00698

Provide recombinant UMI read abundance (log10) value for the following sequence: CATCGGACATGGACCGGTTTTCCCGGTAATCCGTATTTGAA (site CATCGGACTTT)
1.53

Provide recombinant UMI read abundance (log10) value for the following sequence: GCGAGAACATGGACCGGTTTTCCCGGTAATCCGTATTTGCT (site GCGAAAACTAG)
1.35

Provide recombinant UMI read abundance (log10) value for the following sequence: TTCTCTCCATGGACCGGTTTTCCCGGTAATCCGTATTTGAA (site TTCTCTCCTTT)
0.019

Provide recombinant UMI read abundance (log10) value for the following sequence: CTTCTCGCATGGACCGGTTTTCCCGGTAATCCGTATTTGTA (site CTTCTCTCTTA)
0.0056

Provide recombinant UMI read abundance (log10) value for the following sequence: ACATCATCATGGACCGGTTTTCCCGGTAATCCGTATTTGCT (site CGATCATCTAG)
1.05

Provide recombinant UMI read abundance (log10) value for the following sequence: CGGACCCCATGGACCGGTTTTCCCGGTAATCCGTATTTGTT (site CGGACCCCTAA)
1.02

Provide recombinant UMI read abundance (log10) value for the following sequence: AATTATGCATGGACCGGTTTTCCCGGTAATCCGTATTTGGC (site AATTATGCTGC)
1.33

Provide recombinant UMI read abundance (log10) value for the following sequence: GTGATTCCATGGACCGGTTTTCCCGGTAATCCGTATTTGGA (site GTGATTCCTTC)
0.421

Provide recombinant UMI read abundance (log10) value for the following sequence: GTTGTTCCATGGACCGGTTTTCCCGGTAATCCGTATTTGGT (site GTTGTCCCTAC)
0.00355

---

Provide the reported recombinant UMI read abundance (log10) of each item.
assay: recombinant UMI read abundance after kanamycin selection (control-corrected) (log10(CPM+1)); higher = more efficient recombination; extreme values may be limits of the assay; sequences stand for … in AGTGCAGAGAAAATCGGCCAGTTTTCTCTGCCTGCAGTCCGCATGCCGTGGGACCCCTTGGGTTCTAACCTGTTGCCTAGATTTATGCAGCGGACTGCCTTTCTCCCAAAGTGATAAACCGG…AGGTTGGTTTCACT; site = the 11-nt donor
Answer with a bare number; do not write a unit.

Provide recombinant UMI read abundance (log10) value for the following sequence: TGCTAGGCATGGACCGGTTTTCCCGGTAATCCGTATTTGGG (site TGCTAGGCTTC)
0.00914

Provide recombinant UMI read abundance (log10) value for the following sequence: TTGTGAGCATGGACCGGTTTTCCCGGTAATCCGTATTTGGT (site TTGTGAGCTAC)
0.701

Provide recombinant UMI read abundance (log10) value for the following sequence: GCTACTGCATGGACCGGTTTTCCCGGTAATCCGTATTTGCT (site GCTACTGCTTG)
0

Provide recombinant UMI read abundance (log10) value for the following sequence: TGTTCCGCATGGACCGGTTTTCCCGGTAATCCGTATTTGGC (site TGTTCCGCTGC)
0.484

Provide recombinant UMI read abundance (log10) value for the following sequence: ATGTACGCATGGACCGGTTTTCCCGGTAATCCGTATTTGGT (site ATGTACGCTAC)
1.42

Provide recombinant UMI read abundance (log10) value for the following sequence: CCGTTTACATGGACCGGTTTTCCCGGTAATCCGTATTTGGT (site CCGTTTACTAG)
0

Provide recombinant UMI read abundance (log10) value for the following sequence: TGGCCGGCATGGACCGGTTTTCCCGGTAATCCGTATTTGGG (site TGGCCGGCTGC)
0

Provide recombinant UMI read abundance (log10) value for the following sequence: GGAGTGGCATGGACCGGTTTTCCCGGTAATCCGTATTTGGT (site GGATTGGCTAC)
0.458

Provide recombinant UMI read abundance (log10) value for the following sequence: AGGTTAGCATGGACCGGTTTTCCCGGTAATCCGTATTTGAG (site AGGTTAGCTCT)
1.94

Provide recombinant UMI read abundance (log10) value for the following sequence: CAGCGTGCATGGACCGGTTTTCCCGGTAATCCGTATTTGCT (site CAGCGTGCTAG)
2.76

Provide recombinant UMI read abundance (log10) value for the following sequence: CCCTTCCCATGGACCGGTTTTCCCGGTAATCCGTATTTGGG (site CCCTTCGCTCC)
0.00355

Provide recombinant UMI read abundance (log10) value for the following sequence: AGAAAGGCATGGACCGGTTTTCCCGGTAATCCGTATTTGTT (site AGAAAGGCTAT)
0.97

Provide recombinant UMI read abundance (log10) value for the following sequence: ACCACGCCATGGACCGGTTTTCCCGGTAATCCGTATTTGTA (site TCCACGCCTTA)
0.0133

Provide recombinant UMI read abundance (log10) value for the following sequence: CCAGCTGCATGGACCGGTTTTCCCGGTAATCCGTATTTGAT (site CCAGATGCTAT)
0.00428

---

experiment: recombinant UMI read abundance after kanamycin selection (control-corrected) (log10(CPM+1)); higher = more efficient recombination; extreme values may be limits of the assay; sequences stand for … in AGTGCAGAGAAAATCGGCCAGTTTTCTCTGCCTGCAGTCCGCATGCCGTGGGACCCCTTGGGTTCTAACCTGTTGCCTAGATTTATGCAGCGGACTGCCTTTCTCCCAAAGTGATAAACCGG…AGGTTGGTTTCACT; site = the 11-nt donor
If the reported recombinant UMI read abundance (log10) equals or exceeds 0.006, assign fulfilled. If not, assign not fulfilled.

Entry CTGGAAACATGGACCGGTTTTCCCGGTAATCCGTATTTGGT (site CTGGAAACTAC) : is its recombinant UMI read abundance (log10) no less than 0.006?
fulfilled

Entry ATCATGCCATGGACCGGTTTTCCCGGTAATCCGTATTTGCC (site ATCATGCCTGG) : is its recombinant UMI read abundance (log10) no less than 0.006?
not fulfilled

Entry GGTACATCATGGACCGGTTTTCCCGGTAATCCGTATTTGTT (site GGTACCTCTAA) : is its recombinant UMI read abundance (log10) no less than 0.006?
not fulfilled

Entry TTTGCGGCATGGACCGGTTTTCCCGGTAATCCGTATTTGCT (site TTTGCGGCTTG) : is its recombinant UMI read abundance (log10) no less than 0.006?
fulfilled

Entry AAACCAGCATGGACCGGTTTTCCCGGTAATCCGTATTTGGC (site AAACCAGCTGC) : is its recombinant UMI read abundance (log10) no less than 0.006?
not fulfilled

Entry GTGAGGTCATGGACCGGTTTTCCCGGTAATCCGTATTTGCT (site GTGAGGTCTAG) : is its recombinant UMI read abundance (log10) no less than 0.006?
fulfilled

Entry GGAGTGACATGGACCGGTTTTCCCGGTAATCCGTATTTGGT (site GGAGTGACTAC) : is its recombinant UMI read abundance (log10) no less than 0.006?
fulfilled

Entry CCCAATTCATGGACCGGTTTTCCCGGTAATCCGTATTTGCC (site CCCAATTCTGG) : is its recombinant UMI read abundance (log10) no less than 0.006?
fulfilled

Entry TTGTTCCCATGGACCGGTTTTCCCGGTAATCCGTATTTGTG (site TTGTTCCCTCA) : is its recombinant UMI read abundance (log10) no less than 0.006?
fulfilled

Entry GCATACCCATGGACCGGTTTTCCCGGTAATCCGTATTTGAC (site GCATACCCTGT) : is its recombinant UMI read abundance (log10) no less than 0.006?
fulfilled

Entry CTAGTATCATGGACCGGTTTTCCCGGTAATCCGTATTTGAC (site CTCGTAACTGT) : is its recombinant UMI read abundance (log10) no less than 0.006?
not fulfilled

Entry CCGGACCCATGGACCGGTTTTCCCGGTAATCCGTATTTGTT (site CCGGACCCTAA) : is its recombinant UMI read abundance (log10) no less than 0.006?
fulfilled

Entry CGGAATCCATGGACCGGTTTTCCCGGTAATCCGTATTTGGT (site CGGAATCCTAG) : is its recombinant UMI read abundance (log10) no less than 0.006?
not fulfilled

Entry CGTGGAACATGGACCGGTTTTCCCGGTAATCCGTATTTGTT (site CGTGGAACTGA) : is its recombinant UMI read abundance (log10) no less than 0.006?
fulfilled

Entry CTGCTACCATGGACCGGTTTTCCCGGTAATCCGTATTTGCA (site CTGCTACCTGG) : is its recombinant UMI read abundance (log10) no less than 0.006?
not fulfilled

Entry CGTAGAACATGGACCGGTTTTCCCGGTAATCCGTATTTGTT (site CGTGGAACTAA) : is its recombinant UMI read abundance (log10) no less than 0.006?
fulfilled

Entry GAAGATGCATGGACCGGTTTTCCCGGTAATCCGTATTTGTT (site GAAGATCCTAA) : is its recombinant UMI read abundance (log10) no less than 0.006?
fulfilled

Entry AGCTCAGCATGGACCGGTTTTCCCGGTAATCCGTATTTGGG (site AGCTCAGCTGC) : is its recombinant UMI read abundance (log10) no less than 0.006?
not fulfilled

Entry TCGCTAGCATGGACCGGTTTTCCCGGTAATCCGTATTTGAA (site TCGCTAGCTTT) : is its recombinant UMI read abundance (log10) no less than 0.006?
fulfilled

Entry GTGTAGGCATGGACCGGTTTTCCCGGTAATCCGTATTTGGC (site TTGTAGGCTGC) : is its recombinant UMI read abundance (log10) no less than 0.006?
fulfilled

Entry TGCTGCGCATGGACCGGTTTTCCCGGTAATCCGTATTTGTG (site TGCTGCGCTCA) : is its recombinant UMI read abundance (log10) no less than 0.006?
fulfilled

Entry CGCTCAACATGGACCGGTTTTCCCGGTAATCCGTATTTGCT (site CGCTCAACTAG) : is its recombinant UMI read abundance (log10) no less than 0.006?
not fulfilled

Entry GGCCCTACATGGACCGGTTTTCCCGGTAATCCGTATTTGTG (site GGCCCTACTCA) : is its recombinant UMI read abundance (log10) no less than 0.006?
fulfilled

Entry GGTCCAACATGGACCGGTTTTCCCGGTAATCCGTATTTGTT (site GGTCCAACTGA) : is its recombinant UMI read abundance (log10) no less than 0.006?
fulfilled

Entry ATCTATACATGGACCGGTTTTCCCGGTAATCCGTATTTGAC (site ATATATACTGT) : is its recombinant UMI read abundance (log10) no less than 0.006?
fulfilled

Entry AACAGACCATGGACCGGTTTTCCCGGTAATCCGTATTTGCG (site AACAGACCTCG) : is its recombinant UMI read abundance (log10) no less than 0.006?
not fulfilled

Entry GTTCGAGCATGGACCGGTTTTCCCGGTAATCCGTATTTGCG (site GTTCGAGCTCG) : is its recombinant UMI read abundance (log10) no less than 0.006?
fulfilled

Entry TGTTATACATGGACCGGTTTTCCCGGTAATCCGTATTTGCA (site TGTTATACTTG) : is its recombinant UMI read abundance (log10) no less than 0.006?
fulfilled

Entry CACTTCTCATGGACCGGTTTTCCCGGTAATCCGTATTTGCC (site CACTACTCTGG) : is its recombinant UMI read abundance (log10) no less than 0.006?
fulfilled

Entry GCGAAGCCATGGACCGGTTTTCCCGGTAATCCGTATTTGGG (site TCGAAGCCTCC) : is its recombinant UMI read abundance (log10) no less than 0.006?
fulfilled

Entry ATTGTGACATGGACCGGTTTTCCCGGTAATCCGTATTTGGT (site ATTGCGACTAC) : is its recombinant UMI read abundance (log10) no less than 0.006?
fulfilled
